# System: HCT-116 colon
# methodSummary: NCI tumour cell line growth inhibition, 48 h
reportedEndpoint: TGI

These solved cases illustrate the format of a correct answer.
[[record]]
compoundstructurestring = "COc1ccc(/C=N/NC(=O)c2sc(=S)n(-c3ccccc3)c2N)cc1"
valueobserved = "> 100 µM"

[[record]]
compoundstructurestring = "O=c1ccn(CC2(CO)CCCC2)c(=O)[nH]1"
valueobserved = "> 100 µM"

[[record]]
compoundstructurestring = "CN(C)c1ccc(/C=C/c2ccnc3c(O)cccc23)cc1"
valueobserved = "> 100 µM"

[[record]]
compoundstructurestring = "N#C[C@H](C(=O)c1ccccc1F)c1nc2ccccc2s1"
valueobserved = "61.3 µM"

[[record]]
compoundstructurestring = "COc1cc(C(=O)/C=C/c2ccc(OCCSCCCCCCCCCCSCCOc3ccc(/C=C/C(=O)c4cc(OC)c(OC)c(OC)c4)cc3)cc2)cc(OC)c1OC"
valueobserved = "> 100 µM"

[[record]]
compoundstructurestring = "Cc1ccc(/C=N/n2c(Cc3ccccc3)n[nH]c2=O)cc1"
valueobserved = "> 100 µM"

[[record]]
compoundstructurestring = "C[Si](C)(C)C#Cc1cc(-c2nc3ccccc3s2)ccc1N"
valueobserved = "26.6 µM"

[[record]]
compoundstructurestring = "Nc1c(C(=O)c2ccc(-c3cccnc3)cc2)cnn1-c1ccc(F)cc1"
valueobserved = "> 25 µM"


Query: So what does the record say about TGI for "C#CCNC(=O)N(CC#C)N=O" ?
Result: > 100 µM

Query: // query: "NC(=O)C(=O)c1ncn(Cc2ccccc2)c1N"
Result: > 100 µM

Query: Also check "Cn1c2ccccc2n2c3ncccc3c(=NCCCC(=O)O)c(C#N)c12"
Result: > 100 µM
